Just for reference, patent US11702418B2 is where these values come from.

Reported pKi is given for each of the following compounds.
- Measured Target: recombinant human SOS1 polypeptide (amino acids 560-1049) (Homo sapiens (Human))
- Experiment Summary: biochemical
- Format: binding
- Study Conditions: HTRF displacement, Cy5 labelled tracer, Morrison equation for competitive binding; read-out: Ki, Inhibition of Labeled Tracer Binding to SOS1
Value format note: pKi is -log10 of concentration (mol/L); just state the number.

INSERT INTO assay_data (compound, reported_value) VALUES
  ('Cc1nnc(N[C@H](C)c2cccc(C(F)(F)F)c2F)c2cc(N3CCC(N(C)C)CC3)ncc12 [Example 12-64]', 9.29),
  ('COc1c(C#N)cccc1[C@@H](C)Nc1nnc(C)c2ccc(N3CC(C)(O)C3)cc12 [Example 17-4]', 7.84);

Value wanted: pKi (recombinant human SOS1 polypeptide (amino acids 560-1049) (Homo sapiens (Human))) of entry CNCc1ccccc1-c1ccc([C@@H](C)Nc2nnc(C)c3cnc(N4CCOCC4)cc23)s1 [Example 6-2]
8.87

Quick check: pKi on recombinant human SOS1 polypeptide (amino acids 560-1049) (Homo sapiens (Human)), item Cc1c(C(F)F)cccc1[C@@H](C)Nc1nnc(C)c2ccc(N3CCNCC3)cc12 [Example 10-4] ?
10.10

Under recombinant human SOS1 polypeptide (amino acids 560-1049) (Homo sapiens (Human)): pKi value of Cc1nnc(N[C@H](C)c2cccc(F)c2Cl)c2cc(N3CCN4CCOC[C@@H]4C3)ncc12 [Example 12-74] ?
7.98

Quick check: pKi on recombinant human SOS1 polypeptide (amino acids 560-1049) (Homo sapiens (Human)), item Cc1c([C@@H](C)Nc2nnc(C)c3ccc(N4CCC5(CCCN5)CC4)cc23)cccc1C(F)(F)F [Example 10-18] ?
8.85

What is its pKi for recombinant human SOS1 polypeptide (amino acids 560-1049) (Homo sapiens (Human))? Entry: Cc1nnc(N[C@H](C)c2cccc(F)c2Cl)c2cc(N3CC(C)(N(C)C)C3)ncc12 [Example 12-85]
7.56

###

- Tested on: pERK in MKN1 cells
- Experiment Summary: cells
- Type: cell-based
- Study Conditions: Homo sapiens, MKN-1
Counter-ions that a name gives are not always drawn.
Parameter Measured: pIC50
Conceptually, pIC50 converts a concentration in mol/L into minus its log10.

Take a look at these entries with their results.
INSERT INTO assay_data (compound, reported_value) VALUES
  ('Cc1c([C@@H](C)Nc2nnc(C)c3ccc(N4CCC(N5CCC5)CC4)cc23)cccc1C(F)(F)F [Example 10-30, hydrochloride salt]', 7.32),
  ('Cc1c([C@@H](C)Nc2nnc(C)c3ccc(N4CCNC[C@@H](F)C4)cc23)cccc1C(F)(F)F [Example 10-63, Hydrochloride salt]', 7.30);

So what's the measured pIC50 for this one? `Cc1c([C@@H](C)Nc2nnc(C)c3ccc(C4CCNCC4)cc23)cccc1C(F)(F)F`
6.74

I would be grateful if you could share the reported pIC50 for Cc1nnc(N[C@H](C)c2cccc3ccccc23)c2cc(N3CCNCC3)ccc12 [Example 10-43, formate salt] .
6.86

###

# reported IC50; entries follow
- System: pERK in MKN1 cells
- Experiment Summary: cells
- Assay type: cell-based
- Study Conditions: Homo sapiens, MKN-1, pERK inhibition, In-Cell Western; MKN1 or H358 cells (Table 24 does not say which); 0.5-1 hour incubation
Answer with a number only, understood to be in nM.

# example entries with known answers
INSERT INTO assay_data (chemical_string, measured_target, reported_value) VALUES
  ('Cc1c([C@@H](C)Nc2nnc(CN(C)C)c3ccc(N4CCOCC4)cc23)cccc1C(F)(F)F', 'pERK in MKN1 cells', 68),
  ('Cc1nnc(N[C@H](C)c2cc(O)cc(C(F)(F)F)c2)c2cc(N3CCOCC3)ccc12', 'pERK in MKN1 cells', 137),
  ('Cc1c([C@@H](C)Nc2nnc(C)c3cc(F)c(N4CCNCC4)cc23)cccc1C(F)(F)F', 'pERK in MKN1 cells', 128),
  ('Cc1c([C@@H](C)Nc2nnc(CN)c3ccc(N4CCOCC4)cc23)cccc1C(F)(F)F', 'pERK in MKN1 cells', 139);

Please find the next molecule below.
Entry under review: `Cc1cc(C#N)cc([C@@H](C)Nc2nnc(C)c3ccc(N4CCOCC4)cc23)c1` . Reported IC50?
118

###

- System: pERK in NCI-H1435 cells (NF-1 mutant)
- Experiment Summary: pERK inhibition in NF-1 mutant NCI-H1435 cells (Example F)
- Type: cell-based
- Study Conditions: NCI-H1435, 1 h, read-out: IC50, pERK inhibition
Attribute: pIC50
// pIC50 is dimensionless: -log10 of concentration (M)

INSERT INTO results (chemical_string, measured_target, reported_value) VALUES
  ('Cc1c([C@@H](C)Nc2nnc(C)c3ccc(N4CCC(N(C)C)CC4)cc23)cccc1C(F)(F)F', 'pERK in NCI-H1435 cells (NF-1 mutant)', 7.03),
  ('Cc1c([C@@H](C)Nc2nnc(C)c3ccc(O[C@H]4CCNC4)cc23)cccc1C(F)(F)F', 'pERK in NCI-H1435 cells (NF-1 mutant)', 7.26),
  ('Cc1c([C@@H](C)Nc2nnc(C)c3ccc(N4CCN(C(=O)C5(C(F)(F)F)CC5)CC4)cc23)cccc1C(F)(F)F', 'pERK in NCI-H1435 cells (NF-1 mutant)', 7.21);

Moving on to the next compound.
Sample `Cc1c([C@@H](C)Nc2nnc(C)c3ccc(N4CCC(C)(N)CC4)cc23)cccc1C(F)(F)F` — what was its pIC50?
6.82

###

- Measured Target: recombinant human SOS1 polypeptide (amino acids 560-1049) (Homo sapiens (Human))
- Experiment Summary: biochemical
- Assay type: binding
- Study Conditions: HTRF displacement, Cy5 labelled tracer, Morrison equation for competitive binding; read-out: Ki, Inhibition of Labeled Tracer Binding to SOS1
Parameter Measured: Ki (pM)
Field: numeric (pM). Do not append units.

Known results for compounds:
INSERT INTO assay_data (chemical_string, parameter_measured, reported_value) VALUES
  ('Cc1nnc(N[C@H](C)c2cc(N)cc(C(F)(F)F)c2)c2cc(N3CCOCC3)ccc12', 'Ki', 120),
  ('Cc1c(C#N)cccc1[C@@H](C)Nc1nnc(C)c2cnc(N3CC4(CCN(C)C4=O)C3)cc12', 'Ki', 3780),
  ('CCN1CCN(c2cc3c(N[C@H](C)c4cccc(C(F)(F)F)c4F)nnc(C)c3cn2)CC1', 'Ki', 370),
  ('Cc1c([C@@H](C)Nc2nnc(C)c3cnc(N4C[C@H](C)O[C@@H](C)C4)cc23)cccc1C(F)(F)F', 'Ki', 870),
  ('Cc1c(C#N)cccc1[C@@H](C)Nc1nnc(C)c2cnc(N3C[C@H]4C[C@@H]3CO4)cc12', 'Ki', 1240);

State the recorded Ki for this entry: `Cc1nnc(N[C@H](C)c2cc(O)cc(C(F)(F)F)c2)c2cc(N3CCOCC3)ncc12`
2930

###

- Measured Target: recombinant human SOS1 polypeptide (amino acids 560-1049) (Homo sapiens (Human), UniProt Q07889)
- Sequence (Q07889 560-1049): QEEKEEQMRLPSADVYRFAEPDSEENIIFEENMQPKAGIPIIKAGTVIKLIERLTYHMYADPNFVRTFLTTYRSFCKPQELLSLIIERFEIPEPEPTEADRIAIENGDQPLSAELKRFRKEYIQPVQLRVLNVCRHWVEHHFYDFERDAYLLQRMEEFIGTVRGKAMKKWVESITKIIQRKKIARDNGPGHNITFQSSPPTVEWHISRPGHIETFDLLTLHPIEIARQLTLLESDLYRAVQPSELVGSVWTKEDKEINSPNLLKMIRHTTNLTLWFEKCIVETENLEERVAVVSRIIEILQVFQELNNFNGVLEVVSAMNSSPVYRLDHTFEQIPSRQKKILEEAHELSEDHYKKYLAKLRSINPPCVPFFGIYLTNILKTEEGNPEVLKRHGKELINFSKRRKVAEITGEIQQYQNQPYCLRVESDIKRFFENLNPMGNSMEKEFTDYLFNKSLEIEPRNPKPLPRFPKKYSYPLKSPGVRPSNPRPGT
- Experiment Summary: biochemical
- Type: binding
- Study Conditions: HTRF displacement, Cy5 labelled tracer, Morrison equation for competitive binding; read-out: Ki, Inhibition of Labeled Tracer Binding to SOS1
Parameter Measured: Ki (nM)
All answers are understood in nM, so give the number only.

Illustrative cases are given below, each with its answer.
INSERT INTO assay_data (chemical_string, parameter_measured, reported_value) VALUES
  ('Cc1c(C#N)cccc1[C@@H](C)Nc1nnc(C)c2cnc(N3CCN(c4cnn(C)c4)CC3)cc12', 'Ki', 0.99),
  ('Cc1c([C@@H](C)Nc2nnc(C)c3ccc(N4CCOC[C@@H]4C)cc23)cccc1C(F)(F)F', 'Ki', 0.64),
  ('Cc1c(C#N)cccc1[C@@H](C)Nc1nnc(C)c2cnc(N3C[C@H]4CC[C@@H]3CN4CC(F)(F)F)cc12', 'Ki', 1.06),
  ('Cc1c([C@@H](C)Nc2nnc(C)c3ccc(N4CCN(C(=O)[C@@H]5CCOC5)CC4)cc23)cccc1C(F)(F)F', 'Ki', 0.01);

Read the next record carefully.
Would you mind telling me what Ki value was observed for `Cc1cc(F)ccc1[C@@H](C)Nc1nnc(C)c2cnc(N3CCN4CCOC[C@@H]4C3)cc12` ?
36.3
